# EXPERIMENTAL SYSTEM: hSTING (Homo sapiens, UniProt Q86WV6, G230A/H232R/R293Q/R71H)
# Sequence (Q86WV6 whole entry R71H/G230A/H232R/R293Q): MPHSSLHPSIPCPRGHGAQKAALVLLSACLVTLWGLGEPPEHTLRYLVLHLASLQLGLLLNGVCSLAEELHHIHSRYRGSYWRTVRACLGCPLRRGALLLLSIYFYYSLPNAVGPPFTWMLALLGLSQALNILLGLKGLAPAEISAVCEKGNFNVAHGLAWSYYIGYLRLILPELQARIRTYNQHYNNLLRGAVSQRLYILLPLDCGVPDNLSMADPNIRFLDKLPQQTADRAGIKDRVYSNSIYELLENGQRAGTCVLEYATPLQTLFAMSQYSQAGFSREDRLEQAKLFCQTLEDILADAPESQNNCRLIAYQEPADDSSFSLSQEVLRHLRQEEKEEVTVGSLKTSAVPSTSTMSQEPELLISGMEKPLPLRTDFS
# ASSAY NOTES: STING reporter assay (luciferase reporter) in THP1-Dual KO-IFNAR2 cells activated with 2′3′cGAMP
# PARTICULARS: 15 μM 2′3′cGAMP, 24 h, luciferase reporter activity
# Method: STING pathway activation by the compounds described herein is measured using THP1-Dual™ cells (KO-IFNAR2). […] 2 mL of solution A and 2 ml Solution B is mixed and incubated for 20 min at room temperature (RT). […] Luciferase reporter activity is then measured. EC50 values were calculated by using standard methods known in the art. […] Luciferase reporter activity is then measured. EC50 values are calculated by using standard methods known in the art.
MEASURED QUANTITY: EC50

Check out these entries, answers already filled in.
* O=C(Nc1c[nH]c2ncccc12)NC1Cc2ccccc2C1 | 5 to 100 µM
* O=C(Nc1ccc2cnccc2c1)Nc1c[nH]c2ncc(F)cc12 | 5 to 100 µM
* O=C(Nc1c[nH]c2ncccc12)N1CCc2ccccc2C1 | 5 to 100 µM
* O=C(Nc1ccc(C2CCCCC2)cn1)Nc1c[nH]c2ccncc12 | 0.2 to 1 µM

Here is another molecule to look at.
Give the measured EC50 of CCCCC1CCC(NC(=O)Nc2c[nH]c3cccnc23)CC1 (stereo not drawn) .
1 to 5 µM

###

# EXPERIMENTAL SYSTEM: hSTING (Homo sapiens, UniProt Q86WV6, G230A/H232R/R293Q/R71H)
# ASSAY NOTES: STING reporter assay (luciferase reporter) in THP1-Dual KO-IFNAR2 cells activated with 2′3′cGAMP
# PARTICULARS: 15 μM 2′3′cGAMP, 24 h, luciferase reporter activity
# Experimental: STING pathway activation by the compounds described herein is measured using THP1-Dual™ cells (KO-IFNAR2). […] 2 mL of solution A and 2 ml Solution B is mixed and incubated for 20 min at room temperature (RT). […] Luciferase reporter activity is then measured. EC50 values were calculated by using standard methods known in the art. […] Luciferase reporter activity is then measured. EC50 values are calculated by using standard methods known in the art.
pEC50: −log10 of the molar value.
# maps each entry to its pEC50

Check out these entries, answers already filled in.
- CCc1cnc2[nH]cc(NC(=O)Nc3ccc(C(F)(F)F)cc3)c2c1 [Compound 268]: 6.00 to 6.70
- O=C(Nc1ccc(C(F)(F)F)cc1)Nc1c[nH]c2ncc(Cl)cc12 [Compound 283]: 6.70 to 7.40
- O=C(Nc1cccc(C(F)(F)F)c1)Nc1c[nH]c2cnccc12 [Compound 149]: 4.00 to 5.30
- O=C(Nc1ccc(C2CCCCC2)nc1)Nc1c[nH]c2ncccc12 [Compound 263]: 6.00 to 6.70

Next up:
What does the record list as pEC50 for O=C(Nc1ccc2c(c1)CCCC2)Nc1c[nH]c2ncc(F)cc12 [Compound 296] ?
6.70 to 7.40

###

# EXPERIMENTAL SYSTEM: hSTING (Homo sapiens, UniProt Q86WV6, G230A/H232R/R293Q/R71H)
# ASSAY NOTES: STING reporter assay (luciferase reporter) in THP1-Dual KO-IFNAR2 cells activated with 2′3′cGAMP
# PARTICULARS: 15 μM 2′3′cGAMP, 24 h, luciferase reporter activity
The following compounds are listed with their measured EC50 values.

Recorded EC50, per entry:
- O=C(Nc1ccc(C(F)(F)F)cc1)Nc1c[nH]c2ccc(-c3ccccc3)nc12 [Compound 328]: 5 to 100 µM
- CCCCC1CCN(C(=O)Nc2c[nH]c3cccnc23)CC1 [Compound 140]: 1 to 5 µM
- O=C(Nc1ccc(C(F)(F)F)cc1)Nc1c[nH]c2cncc(F)c12 [Compound 164]: 5 to 100 µM
- CCc1ccc(CNC(=O)Nc2c[nH]c3ncccc23)cc1 [Compound 171]: 5 to 100 µM
- CN1CC=C(c2cnc3[nH]cc(NC(=O)Nc4ccc(C(F)(F)F)cc4)c3c2)CC1 [Compound 213]: 5 to 100 µM
- O=C(Nc1cc(F)cc(F)c1)Nc1c[nH]c2ncccc12 [Compound 299]: 5 to 100 µM
- O=C(Nc1cccc(C2CCCCC2)c1)Nc1c[nH]c2cccnc12 [Compound 139]: 0.2 to 1 µM
- O=C(Nc1c[nH]c2ncc(F)cc12)NC1CCC2(CC1)CC2 [Compound 305]: 1 to 5 µM
- CC(C)(O)c1cccc(-c2ccnc3[nH]cc(NC(=O)Nc4ccc(C(F)(F)F)cc4)c23)c1 [Compound 205]: 5 to 100 µM
- O=C(Nc1ccc(C2CCCCC2)cn1)Nc1c[nH]c2ncccc12 [Compound 264]: 0.2 to 1 µM

Name the recorded EC50 for O=C(Nc1ccc(C2CCC2)c(F)c1)Nc1c[nH]c2ncc(F)cc12 [Compound 250] .
0.2 to 1 µM

Look at this compound and give its reported EC50. CC(C)n1cc(-c2ccnc3[nH]cc(NC(=O)Nc4ccc(C(F)(F)F)cc4)c23)cn1 [Compound 186]
5 to 100 µM

// lookup EC50 for CC(NC(=O)Nc1c[nH]c2ncc(F)cc12)c1ccc2c(c1)OCCO2 (stereo not drawn) [Compound 279]
5 to 100 µM

Name the recorded EC50 for C=Cc1cnc2[nH]cc(NC(=O)Nc3ccc(C(F)(F)F)cc3)c2c1 [Compound 276] .
0.2 to 1 µM

// EC50 lookup, key: CN1CCN(c2ccc(-c3cnc4[nH]cc(NC(=O)Nc5ccc(C(F)(F)F)cc5)c4c3)cc2)CC1 [Compound 197]
1 to 5 µM

###

Property: pEC50; scope: individual molecules
# EXPERIMENTAL SYSTEM: hSTING (Homo sapiens, UniProt Q86WV6, G230A/H232R/R293Q/R71H)
# ASSAY NOTES: STING reporter assay (luciferase reporter) in THP1-Dual KO-IFNAR2 cells activated with 2′3′cGAMP
# PARTICULARS: 15 μM 2′3′cGAMP, 24 h, luciferase reporter activity
pEC50: −log10 of the molar value.

Would you please look over these solved cases?
• CN(C(=O)Nc1c[nH]c2ncc(F)cc12)c1ccc(C(F)(F)F)cc1 = 4.00 to 5.30
• CCCCc1ccc(N(CC)C(=O)Nc2c[nH]c3ncc(F)cc23)cc1 = 4.00 to 5.30
• CN1CC=C(c2ccnc3[nH]cc(NC(=O)Nc4ccc(C(F)(F)F)cc4)c23)CC1 = 4.00 to 5.30
• O=C(Nc1ccc(C(F)(F)F)cn1)Nc1c[nH]c2cccnc12 = 4.00 to 5.30
• CS(=O)(=O)c1ccc(-c2cnc3[nH]cc(NC(=O)Nc4ccc(C(F)(F)F)cc4)c3c2)cc1 = 4.00 to 5.30

Dear colleague, I am looking for the recorded pEC50 of the following molecule: CCCCC1CCC(NC(=O)Nc2c[nH]c3ncc(F)cc23)CC1 (centres unmarked)
6.00 to 6.70

Record request: pEC50 value, item CCCCc1cccc(NC(=O)Nc2c[nH]c3ncc(F)cc23)c1
6.70 to 7.40

Quick one: pEC50 of O=C(Nc1cccc2c1CCCC2)Nc1c[nH]c2ncc(F)cc12 ?
5.30 to 6.00

Query: pEC50; subject: Cc1cnc2[nH]cc(NC(=O)Nc3ccc(C(F)(F)F)cc3)c2c1
6.00 to 6.70

Query (molecule): O=C(Nc1c[nH]c2ncccc12)NC1CC(c2ccccc2)C1 (centres unmarked) ; field requested: pEC50
4.00 to 5.30

For the molecule O=C(Nc1ccc(C(F)(F)F)cc1)Nc1c[nH]c2c(Cl)ncnc12 , what pEC50 is on record?
4.00 to 5.30

// pEC50 lookup, key: O=C(Nc1ccc(C(F)(F)F)cc1)Nc1c[nH]c2ncc(Br)cc12
6.70 to 7.40

# input molecule: O=C(Nc1ccc(C2CCCCC2)cn1)Nc1c[nH]c2cccnc12 ; wanted: its pEC50
6.00 to 6.70

###

# EXPERIMENTAL SYSTEM: hSTING (Homo sapiens, UniProt Q86WV6, G230A/H232R/R293Q/R71H)
# ASSAY NOTES: STING reporter assay (luciferase reporter) in THP1-Dual KO-IFNAR2 cells activated with 2′3′cGAMP
# PARTICULARS: 15 μM 2′3′cGAMP, 24 h, luciferase reporter activity
pEC50: −log10 of the molar value.
MEASURED QUANTITY: pEC50

• O=C(Nc1ccc(F)cn1)Nc1c[nH]c2ncc(F)cc12 = 5.30 to 6.00

# input molecule: CCCCC1CCC(N/C(=N\C#N)Nc2c[nH]c3cccnc23)CC1 (stereo not shown) ; wanted: its pEC50
6.00 to 6.70

Sample O=C(Nc1c[nH]c2ncc(-c3ccccc3)cc12)NC1CCC(C(F)(F)F)CC1 (stereo not shown) — what was its pEC50?
4.00 to 5.30

What value of pEC50 has been recorded for this entry: O=C(Nc1ccc(C2CCCCC2)cn1)Nc1c[nH]c2ncc(F)cc12
6.70 to 7.40

Data origin: patent US11618749B2
